target of assay: T1, C1r-CCP2-SP, recombinant autoactivated domain truncation of human C1r (human, UniProt P00736 375-703)
T1 sequence: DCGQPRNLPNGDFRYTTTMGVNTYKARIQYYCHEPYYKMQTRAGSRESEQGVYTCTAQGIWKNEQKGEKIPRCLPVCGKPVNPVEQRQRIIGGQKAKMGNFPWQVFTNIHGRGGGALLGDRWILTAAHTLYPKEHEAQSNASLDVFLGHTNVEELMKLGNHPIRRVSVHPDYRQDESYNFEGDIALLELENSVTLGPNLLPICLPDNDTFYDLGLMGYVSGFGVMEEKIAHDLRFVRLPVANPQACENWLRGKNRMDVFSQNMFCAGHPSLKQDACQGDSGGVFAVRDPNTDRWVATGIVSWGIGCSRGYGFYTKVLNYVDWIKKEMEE
assay text: SPR

binder	units text	kon
BBK32-C L236A-T239A (domain or fragment, B. burgdorferi B31, UniProt O50835 206-348, looked up) SNRYQSYLEGVKYNVDSAIQTITKIYNTYTAFSAKLTQMYSTRLDNFAKAKAKEEAAKFTKEDLEKNFKTLLNYIQVSVKTAANFVYINDTHAKRKLENIEAEIKTLIAKIKEQSNLYEAYKAIVTSILLMRDSLKEVQGIID	M⁻¹ s⁻¹	240000
BBK32-C Y245A (domain or fragment, B. burgdorferi B31, UniProt O50835 206-348, looked up) SNRYQSYLEGVKYNVDSAIQTITKIYNTYTLFSTKLTQMASTRLDNFAKAKAKEEAAKFTKEDLEKNFKTLLNYIQVSVKTAANFVYINDTHAKRKLENIEAEIKTLIAKIKEQSNLYEAYKAIVTSILLMRDSLKEVQGIID	M⁻¹ s⁻¹	280000
BBK32-C R337A (residues 206–354) (domain or fragment, B. burgdorferi B31, UniProt O50835 206-354, looked up) SNRYQSYLEGVKYNVDSAIQTITKIYNTYTLFSTKLTQMYSTRLDNFAKAKAKEEAAKFTKEDLEKNFKTLLNYIQVSVKTAANFVYINDTHAKRKLENIEAEIKTLIAKIKEQSNLYEAYKAIVTSILLMADSLKEVQGIIDKNGVWY	M⁻¹ s⁻¹	110000
BBK32-C Y323A-E324A (domain or fragment, B. burgdorferi B31, UniProt O50835 206-348, looked up) SNRYQSYLEGVKYNVDSAIQTITKIYNTYTLFSTKLTQMYSTRLDNFAKAKAKEEAAKFTKEDLEKNFKTLLNYIQVSVKTAANFVYINDTHAKRKLENIEAEIKTLIAKIKEQSNLAAAYKAIVTSILLMRDSLKEVQGIID	M⁻¹ s⁻¹	100000
